assay: inhibitors of Chlamydomonas gravitaxis, primary screen, whole organism, Chlamydomonas reinhardtii, WT vs cilia-less mutant, absorbance, 96-well (AID 463189); details: OD600 absorbance, 2 days, at 10 µM, stronger effect = higher value;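 also: 0% = wild type cc124 cells in DMSO and 100% = ciliumless bld1 mutant cells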
Kindly state inhibition for each of the entries shown.
Give bare numbers, in %.

Example entries begin here.
N#Cc1nc(-c2ccccc2Cl)oc1N1CCCCC1: 35.9
Cc1ccc2c(=O)c(CN(C)C3CCN(C)CC3)c(C)[nH]c2c1C: 1.23
Cc1c(C(Nc2ccccn2)c2ccccc2)c(=O)n(-c2ccccc2)n1C (stereo unspecified): 23.1
COCCOC(=O)C1=C(C)NC(SCC(=O)NC(C)(C)C)=C(C#N)C1c1ccco1 (stereo unspecified): 27.7
O=C(/C=C/c1ccccc1)c1ccccc1: 21.2

Exercise: Name the reported inhibition value associated with the compound "COc1ccc(Nc2oc(-c3cccs3)nc2C#N)cc1"
Solution: 16

----------
target: Voltage-gated potassium channel subunit beta-2 (Rattus norvegicus); assay: KvBeta positive modulators, primary screen, biochemical, NADPH fluorescence (AID 623); details: Recombinant KvBeta, NADPH fluorescence decrease slope, 10 min; at 10 µM; stronger effect = lower value;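 also: fluorescence intensity change per second fitted from 20 to 320 s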
Kindly state NADPH fluorescence slope for each of the entries shown.
One number for each entry.

Example entries begin here.
Cn1c(=O)cc(NCc2ccccc2)[nH]c1=O: 5.7e-06
CCCCc1nc(NCCN2CCOCC2)c(C#N)c2c1COC(C)(C)C2: 8.4e-06
COc1cccc(N2C(=O)C(O)=C(C(C)=O)C2c2ccc(OC)c(OC)c2)c1 (stereo not given): -6.1e-06
Fc1ccccc1/C=N/n1cnnc1: -6.2e-06
CCn1c(SCC(=O)O)nc2sc3c(c2c1=O)CCC3: -5.6e-05
O=C(Nc1ccc2c(c1)OCO2)c1cc2n(n1)C(C(F)(F)F)CC(c1ccccc1)N2 (stereo not given): -7.9e-05
CCN1CCN(c2nc3c(C)cccn3c(=O)c2/C=C(\C#N)S(=O)(=O)c2ccc(C)cc2)CC1: -6.4e-05
CC(=O)OCC(=O)[C@@]12OC(C)(C)O[C@@H]1C[C@H]1[C@@H]3C[C@H](F)C4=CC(=O)C=C[C@]4(C)[C@@]3(F)[C@@H](O)C[C@@]12C: -7.8e-05
CNC(=O)c1cc2ccccc2o1: -4.2e-05

Could you now consider this next compound?
Exercise: Name the reported NADPH fluorescence slope value associated with the compound "CCOC(=O)c1[nH]c2cc3c(cc2c1NC(=O)CN1CCC(C)CC1)OCO3"
Solution: 6.7e-06

----------
assay: inhibitors of E-selectin induction by TNFa, primary screen, imaging, HUVEC, immunofluorescence, MLSMR starter and 10KST1 sets (AID 487); settings: HUVEC TNFalpha-induced E-selectin immunofluorescence imaging, at 2 µM; measured here: cell number, toxicity;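 also: 100% = median nuclei count of all wells on the same plate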
Assay readout: nuclei count (%)
One number for each entry, in %.

Cn1c(-n2c(-c3ccco3)nc3ccccc3c2=O)nc2ccccc21: 126
C[C@H](CS)C(=O)N1CCC[C@H]1C(=O)O: 124
N=c1c[n+](N2CCOCC2)[n-]o1: 139
COc1ccccc1N1C(=O)C2ON(c3ccccc3)C(c3ccc(N(C)C)cc3)C2C1=O (stereo unspecified): 170
CCCCOC(=O)CSC1=C(C#N)C(c2ccccc2OC)C(C#N)C(=O)N1 (stereo unspecified): 116

// each listed compound needs a value for nuclei count
1. N#C/C(C(=O)N1CCOCC1)=C1/SC(Cc2ccccc2)C(=O)N1c1ccccc1 (stereo unspecified)
2. Cc1noc(NS(=O)(=O)c2ccc(N)cc2)c1C
3. CC(C[N+](C)(C)C)OC(N)=O (stereo unspecified)
4. CCCC(=O)Nn1cnc2c(c1=O)C1(CCCC1)Cc1ccccc1-2
5. CC(C)Cc1nc(NCCN2CCOCC2)c(C#N)c2c1COC(C)(C)C2
6. COC(=O)c1cc(Br)c(=O)n(CCc2ccc(F)cc2)c1

Solution:
1. 112
2. 114
3. 125
4. 108
5. 192
6. 151

// each listed compound needs a value for nuclei count
1. Nc1nnc(Cc2ccc(Cl)c(Cl)c2)s1
2. COc1cc([C@@H]2[C@H]3CN(C)CC=C3C(C#N)=C(N)C2(C#N)C#N)cc2c1OCO2
3. CC(C)(C)C1=Nn2c(nnc2-c2ccco2)SC1
4. COC(=O)c1cc(Br)c(=O)n(Cc2ccc3c(c2)OCO3)c1
5. Nc1ncnc2nc(SCc3ccccc3)[nH]c12

Solution:
1: 174; 2: 109; 3: 165; 4: 135; 5: 152
